Reference source for all entries: paper PMC6424957

- assay-target: Electrophorus electricus AChE (EeAChE) (Electrophorus electricus, UniProt O42275)
- Construct: from human erythrocyte and E. electricus (EeAChE) (type VI-S); purchased Sigma-Aldrich (Germany) type VI-S; host or cells: Electrophorus electricus tissue
- Sequence (O42275 24-633): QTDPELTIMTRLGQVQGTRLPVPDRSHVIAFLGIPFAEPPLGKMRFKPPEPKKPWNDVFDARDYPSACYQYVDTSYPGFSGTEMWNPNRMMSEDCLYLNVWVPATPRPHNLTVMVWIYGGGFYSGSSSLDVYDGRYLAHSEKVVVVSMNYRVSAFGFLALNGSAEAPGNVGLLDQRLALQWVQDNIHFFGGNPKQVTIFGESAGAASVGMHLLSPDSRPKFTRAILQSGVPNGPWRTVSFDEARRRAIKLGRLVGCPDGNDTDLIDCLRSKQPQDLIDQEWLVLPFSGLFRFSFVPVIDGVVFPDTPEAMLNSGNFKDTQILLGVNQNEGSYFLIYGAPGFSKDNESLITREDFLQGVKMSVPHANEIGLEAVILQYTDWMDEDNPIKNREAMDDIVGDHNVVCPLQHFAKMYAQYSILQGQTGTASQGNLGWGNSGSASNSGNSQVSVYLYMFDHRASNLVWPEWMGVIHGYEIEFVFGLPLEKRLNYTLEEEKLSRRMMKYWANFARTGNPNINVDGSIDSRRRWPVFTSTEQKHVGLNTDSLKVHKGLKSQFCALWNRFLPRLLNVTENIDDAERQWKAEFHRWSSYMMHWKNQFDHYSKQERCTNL
- procedure-text: biochemical
- Type: biochemical
- condition-description: mean ± SEM, n ≥ 3; read-out: EeAChE IC50
measured-parameter: IC50 (µM)
Answers are plain numbers, in µM.

Record IC50 per entry; entries follow.
1. Cc1ccc2c(c1)c1c(n2CCC(=O)N2c3ccc(N(C)C)cc3Sc3cc(N(C)C)ccc32)CCN(C)C1 [Compound 3]
2. CN1CCc2c(c3cc(F)ccc3n2CCC(=O)N2c3ccc(N(C)C)cc3Sc3cc(N(C)C)ccc32)C1 [Compound 7]
3. Cc1ccc2c(c1)c1c(n2CCC(=O)N2c3ccc(N(C)C)cc3Sc3cc(N(C)C)ccc32)CCN(C(C)C)C1.Cl.Cl.Cl [Compound 6]
4. CCN1CCc2c(c3ccccc3n2CCC(=O)N2c3ccc(N(C)C)cc3Sc3cc(N(C)C)ccc32)C1.Cl.Cl.Cl [Compound 2]

1.47
2.09
1.07
0.67

---

Assign IC50 to each entry below.
- assay-target: human erythrocyte acetylcholinesterase (AChE) (Homo sapiens)
- Construct: Acetylcholinesterase (AChE, EC 3.1.1.7, from human erythrocyte); purchased Sigma-Aldrich (Germany); host or cells: human erythrocytes
- Sequence (P22303 32-617 isoform P22303-2 limits assumed): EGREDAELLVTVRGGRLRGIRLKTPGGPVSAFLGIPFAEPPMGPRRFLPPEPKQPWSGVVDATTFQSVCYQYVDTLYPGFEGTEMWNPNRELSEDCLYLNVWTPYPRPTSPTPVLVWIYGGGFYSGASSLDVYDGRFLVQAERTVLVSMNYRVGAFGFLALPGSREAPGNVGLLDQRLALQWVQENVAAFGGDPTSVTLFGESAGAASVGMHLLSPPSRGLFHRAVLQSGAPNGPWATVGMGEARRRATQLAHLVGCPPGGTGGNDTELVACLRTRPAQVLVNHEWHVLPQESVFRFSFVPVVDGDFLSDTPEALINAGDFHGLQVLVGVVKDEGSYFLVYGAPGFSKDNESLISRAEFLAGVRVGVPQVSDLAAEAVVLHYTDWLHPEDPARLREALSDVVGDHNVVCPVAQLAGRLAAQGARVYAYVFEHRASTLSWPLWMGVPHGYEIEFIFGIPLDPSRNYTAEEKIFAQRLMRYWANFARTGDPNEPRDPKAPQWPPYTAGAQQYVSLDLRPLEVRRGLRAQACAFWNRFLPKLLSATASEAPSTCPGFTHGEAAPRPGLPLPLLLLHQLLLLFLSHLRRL
- procedure-text: biochemical
- Format: biochemical
- condition-description: mean ± SEM, n ≥ 3
Numbers only, in µM.

CN(C)c1ccc2c(c1)Sc1cc(N(C)C)ccc1N2 [MBH2, leucomethylene blue, reference compound]
1.76
CCN1CCc2c(c3ccccc3n2CCC(=O)N2c3ccc(N(C)C)cc3Sc3cc(N(C)C)ccc32)C1.Cl.Cl.Cl
2.95
CCCN1CCc2c(c3cc(C)ccc3n2CCC(=O)N2c3ccc(N(C)C)cc3Sc3cc(N(C)C)ccc32)C1.Cl.Cl.Cl
3.95

Record IC50 per entry; entries follow.
1. Cc1ccc2c(c1)c1c(n2CCc2ccc(C)nc2)CCN(C)C1 [Dimebon, reference compound]
2. Cc1ccc2c(c1)c1c(n2CCC(=O)N2c3ccc(N(C)C)cc3Sc3cc(N(C)C)ccc32)CCN(C(C)C)C1.Cl.Cl.Cl

[36.3, 7.37]

---

- assay-target: equine serum butyrylcholinesterase (BChE) (Equus caballus, UniProt P81908)
- Construct: butyrylcholinesterase (BChE, EC 3.1.1.8, from equine serum)
- Sequence (P81908 whole entry): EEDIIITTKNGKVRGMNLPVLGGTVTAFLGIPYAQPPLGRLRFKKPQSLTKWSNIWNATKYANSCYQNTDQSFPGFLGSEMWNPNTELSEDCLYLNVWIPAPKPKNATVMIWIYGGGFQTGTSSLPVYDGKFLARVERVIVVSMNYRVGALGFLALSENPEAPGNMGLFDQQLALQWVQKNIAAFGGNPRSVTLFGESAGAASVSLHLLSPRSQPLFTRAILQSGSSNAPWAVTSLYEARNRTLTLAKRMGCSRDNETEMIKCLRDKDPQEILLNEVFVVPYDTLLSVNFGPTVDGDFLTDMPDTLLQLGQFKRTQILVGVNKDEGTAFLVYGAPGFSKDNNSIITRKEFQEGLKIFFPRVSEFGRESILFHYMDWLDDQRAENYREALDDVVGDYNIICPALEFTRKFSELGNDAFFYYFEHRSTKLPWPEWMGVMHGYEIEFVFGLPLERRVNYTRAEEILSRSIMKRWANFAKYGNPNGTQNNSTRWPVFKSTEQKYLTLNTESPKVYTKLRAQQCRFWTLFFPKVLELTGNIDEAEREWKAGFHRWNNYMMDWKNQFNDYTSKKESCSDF
- procedure-text: biochemical
- condition-description: mean ± SEM, n ≥ 3
measured-parameter: pIC50
One number for each entry, as −log10 of the molar value.

Record pIC50 per entry; entries follow.
1. CN(C)c1ccc2nc3ccc(=[N+](C)C)cc-3sc2c1 [MB, methylene blue, reference compound]
2. CN1CCc2c(c3cc(F)ccc3n2CCC(=O)N2c3ccc(N(C)C)cc3Sc3cc(N(C)C)ccc32)C1

1: 4.95; 2: 4.98

Record pIC50 per entry; entries follow.
1. CCCN1CCc2c(c3cc(C)ccc3n2CCC(=O)N2c3ccc(N(C)C)cc3Sc3cc(N(C)C)ccc32)C1.Cl.Cl.Cl
2. CN(C)c1ccc2c(c1)Sc1cc(N(C)C)ccc1N2 [MBH2, leucomethylene blue, reference compound]

5.07
4.97
